Tested on: zebrafish Estrogen Receptor (ESR2A), gene 317734
assay.remarks: ATG_zfER2a_XSP1: Attagene TRANS-FACTORIAL Multi-Species (XSP1) HepG2 Assay for zebrafish Estrogen Receptor (ESR2A) (AID 2283778)
Experimental: ATG_XSP1_multi-species_TRANS is a cell-based, multiplexed assay created by modifying the existing Attagene TRANS-FACTORIAL system to include a panel of nuclear receptors from some or all the following species: human (Homo sapiens), mouse (Mus musculus), frog (Xenopus laevis), zebrafish (Danio rerio), chicken (Gallus gallus), and turtle (Chrysemys picta). The ECOTOX-FACTORIAL format uses HepG2, a human liver cell line, with measurements taken at 24 hours after chemical dosing in a 24-well plate. […]
Inconclusive results are not listed. Active and inactive are the calls of the source. How the source made its calls: active means hit-call score of the fitted dose curve at least 0.9, where 1 is the maximum; inconclusive means response in the unintended direction; inactive means score below 0.9.
Classes used: active, inactive

compound: C[C@]12CCC(=O)C[C@@H]1CC[C@@H]1[C@@H]2CC[C@]2(C)[C@@H](O)CC[C@@H]12
qualitative.label: active

compound: CC1(C)CCC(Cc2ccc(Cl)cc2)C1(O)Cn1cncn1 (centres undefined)
qualitative.label: inactive

compound: CC12CC1(C)C(=O)N(c1cc(Cl)cc(Cl)c1)C2=O (centres undefined)
qualitative.label: inactive

compound: CC(C)(C)CC(C)(C)c1ccc(O)cc1
qualitative.label: inactive
